I'd appreciate it if you could supply Activity values for the items below.
# tested_target: Peroxisome proliferator-activated receptor alpha (Homo sapiens)
# protocol_notes: Agonist activity at human PPAR alpha in HepG2 cells by PPAR-GAL4 transactivation assay relative to GW-2331
# Type: functional, cell-based
Write the value in % as a bare number.

Which Activity is listed for Cc1oc(-c2ccccc2)nc1CCOc1ccc(CC2(C(=O)O)CCCCO2)nc1 (centres undefined) ?
5

What value of Activity has been reported for the following compound? CCOC(Cc1ccc(OCCc2nc(-c3ccccc3)oc2C)cn1)C(=O)O (centres undefined)
100

# lookup: Activity of Cc1oc(-c2ccccc2)nc1CCOc1ncc(CC2(C(=O)O)CCCO2)cn1 (centres undefined)
58

State the recorded Activity for this entry: COc1ccc(-c2nc(CCOc3ccc(CC4(C(=O)O)CCCO4)nc3)c(C)o2)cc1 (centres undefined)
95
